# TEST_SYSTEM: Serine protease 1 (Bos taurus, UniProt P00760)
# Sequence (P00760 whole entry): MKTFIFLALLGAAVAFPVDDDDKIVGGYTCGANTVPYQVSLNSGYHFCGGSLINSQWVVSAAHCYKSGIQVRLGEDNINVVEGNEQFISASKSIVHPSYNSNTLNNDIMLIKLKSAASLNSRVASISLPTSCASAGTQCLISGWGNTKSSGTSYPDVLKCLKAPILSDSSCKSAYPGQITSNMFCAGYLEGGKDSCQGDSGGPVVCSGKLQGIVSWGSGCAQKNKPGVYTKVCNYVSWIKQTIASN
VALUE_TYPE: IC50

- CCCCCCCCCCCCCC(=O)OCC1OC(Oc2cc(O)cc(O)c2C(=O)CCc2ccc(O)cc2)C(O)C(O)C1O (stereo not drawn) [Phloridzin myristate]: 65 µM
- CCCCCCCCCCCC(=O)OCC1OC(Oc2cc(O)cc(O)c2C(=O)CCc2ccc(O)cc2)C(O)C(O)C1O (stereo not drawn) [Phloridzin laurate]: 55 µM
- O=c1ccc2cc(OC3OC(CO)C(O)C(O)C3O)c(O)cc2o1 (stereo not drawn) [Esculin]: 150 µM
- CCCCCC(=O)OC1C(C)OC(OCC2OC(Oc3c(-c4ccc(O)c(O)c4)oc4cc(O)cc(O)c4c3=O)C(O)C(O)C2O)C(O)C1O (stereo not drawn) [Rutin caproate]: > 500 µM
- CCCCCCCCCCCC(=O)OC1C(C)OC(OCC2OC(Oc3c(-c4ccc(O)c(O)c4)oc4cc(O)cc(O)c4c3=O)C(O)C(O)C2O)C(O)C1O (stereo not drawn) [Rutin laurate]: 90 µM
- CCCCCCCCCCCCCCCC(=O)OCC1OC(Oc2cc3ccc(=O)oc3cc2O)C(O)C(O)C1O (stereo not drawn) [Esculin palmitate]: 210 µM
- CCCCCCCCCCCCCCCCCC(=O)OCC1OC(Oc2cc3ccc(=O)oc3cc2O)C(O)C(O)C1O (stereo not drawn) [Esculin stearate]: 50 µM
- CCCCCCCCCCCCCCCCCC(=O)OCC1OC(Oc2cc(O)cc(O)c2C(=O)CCc2ccc(O)cc2)C(O)C(O)C1O (stereo not drawn) [Phloridzin stearate]: 215 µM

* * *

# TEST_SYSTEM: Urokinase-type plasminogen activator (Homo sapiens)
Measured IC50, listed per entry.
VALUE_TYPE: IC50 (µM)

• CCCCCCCCCCCCCCCCCC(=O)OCC1OC(Oc2cc(O)cc(O)c2C(=O)CCc2ccc(O)cc2)C(O)C(O)C1O (stereo not drawn) [Phloridzin stearate] = 13
• CCCCCCCCCCCC(=O)OCC1OC(Oc2cc3ccc(=O)oc3cc2O)C(O)C(O)C1O (stereo not drawn) [Esculin laurate] = 100
• CC/C=C\C/C=C\C/C=C\CCCCCCCC(=O)OC1C(C)OC(OCC2OC(Oc3c(-c4ccc(O)c(O)c4)oc4cc(O)cc(O)c4c3=O)C(O)C(O)C2O)C(O)C1O (stereo not drawn) [Rutin linolenate] = 20

* * *

pIC50: −log10 of the molar value.
System: Chymotrypsin-like elastase family member 1 (Pig, UniProt P00772) | Read-out: pIC50
Sequence (P00772 whole entry): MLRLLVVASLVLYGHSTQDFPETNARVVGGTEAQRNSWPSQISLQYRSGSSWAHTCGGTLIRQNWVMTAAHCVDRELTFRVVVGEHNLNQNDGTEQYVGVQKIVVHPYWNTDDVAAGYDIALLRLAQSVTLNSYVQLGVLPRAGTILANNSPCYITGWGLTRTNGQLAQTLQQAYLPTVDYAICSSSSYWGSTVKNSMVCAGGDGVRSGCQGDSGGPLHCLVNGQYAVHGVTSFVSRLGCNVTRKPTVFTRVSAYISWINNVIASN
VALUE_TYPE: pIC50

- CCCCCCCCCCCCCCCCCC(=O)OCC1OC(Oc2cc3ccc(=O)oc3cc2O)C(O)C(O)C1O (stereo unspecified) [Esculin stearate]: 4.22
- CC/C=C\C/C=C\C/C=C\CCCCCCCC(=O)OC1C(C)OC(OCC2OC(Oc3c(-c4ccc(O)c(O)c4)oc4cc(O)cc(O)c4c3=O)C(O)C(O)C2O)C(O)C1O (stereo unspecified) [Rutin linolenate]: < 3.30
- O=c1ccc2cc(OC3OC(CO)C(O)C(O)C3O)c(O)cc2o1 (stereo unspecified): 4.00
- CCCCCCCCCCCCCCCC(=O)OCC1OC(Oc2cc(O)cc(O)c2C(=O)CCc2ccc(O)cc2)C(O)C(O)C1O (stereo unspecified) [Phloridzin palmitate]: < 3.30
- CCCC(=O)OC1C(C)OC(OCC2OC(Oc3c(-c4ccc(O)c(O)c4)oc4cc(O)cc(O)c4c3=O)C(O)C(O)C2O)C(O)C1O (stereo unspecified) [Rutin butyrate]: < 3.30
- CCCCCCCC(=O)OC1C(C)OC(OCC2OC(Oc3c(-c4ccc(O)c(O)c4)oc4cc(O)cc(O)c4c3=O)C(O)C(O)C2O)C(O)C1O (stereo unspecified) [Rutin caprylate]: < 3.30
- N=C(N)Nc1ccc(C(=O)O)cc1 [4-Guanidinobenzoate]: 3.30
- CCCCCCCCCCCCCCCC(=O)OCC1OC(Oc2cc3ccc(=O)oc3cc2O)C(O)C(O)C1O (stereo unspecified) [Esculin palmitate]: 4.52
- CCCCCCCC/C=C\CCCCCCCC(=O)OC1C(C)OC(OCC2OC(Oc3c(-c4ccc(O)c(O)c4)oc4cc(O)cc(O)c4c3=O)C(O)C(O)C2O)C(O)C1O (stereo unspecified) [Rutin oleate]: < 3.30
- CCCCCCCCCCCCCCCCCC(=O)OCC1OC(Oc2cc(O)cc(O)c2C(=O)CCc2ccc(O)cc2)C(O)C(O)C1O (stereo unspecified) [Phloridzin stearate]: < 3.30
- CCCCCCCCCCCCCC(=O)OCC1OC(Oc2cc(O)cc(O)c2C(=O)CCc2ccc(O)cc2)C(O)C(O)C1O (stereo unspecified) [Phloridzin myristate]: < 3.30
